Biological target: EP2 (Homo sapiens, UniProt P43116)
Sequence (P43116 whole entry): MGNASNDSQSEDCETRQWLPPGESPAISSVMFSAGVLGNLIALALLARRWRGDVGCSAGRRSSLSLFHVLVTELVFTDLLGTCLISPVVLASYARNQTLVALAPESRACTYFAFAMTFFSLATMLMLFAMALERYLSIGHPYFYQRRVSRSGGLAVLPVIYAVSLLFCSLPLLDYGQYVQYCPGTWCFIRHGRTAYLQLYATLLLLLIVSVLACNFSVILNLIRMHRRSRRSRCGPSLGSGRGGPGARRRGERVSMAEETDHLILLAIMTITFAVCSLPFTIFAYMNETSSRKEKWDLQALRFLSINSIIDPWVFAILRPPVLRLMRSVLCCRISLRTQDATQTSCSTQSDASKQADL
Test: EP2 cAMP assay
Assay type: cell-based

{"columns": ["compound", "testSystem", "EC50 (nM)"],
 "data": [
  ["CCCCCCc1ccc(-c2cccn2CCCc2ccc(C(=O)O)s2)cc1 [Example 1]", "EP2 (Homo sapiens, UniProt P43116)", 3]
]}

====

Molecular target: EP4 (Homo sapiens)
Sequence (P35408 whole entry): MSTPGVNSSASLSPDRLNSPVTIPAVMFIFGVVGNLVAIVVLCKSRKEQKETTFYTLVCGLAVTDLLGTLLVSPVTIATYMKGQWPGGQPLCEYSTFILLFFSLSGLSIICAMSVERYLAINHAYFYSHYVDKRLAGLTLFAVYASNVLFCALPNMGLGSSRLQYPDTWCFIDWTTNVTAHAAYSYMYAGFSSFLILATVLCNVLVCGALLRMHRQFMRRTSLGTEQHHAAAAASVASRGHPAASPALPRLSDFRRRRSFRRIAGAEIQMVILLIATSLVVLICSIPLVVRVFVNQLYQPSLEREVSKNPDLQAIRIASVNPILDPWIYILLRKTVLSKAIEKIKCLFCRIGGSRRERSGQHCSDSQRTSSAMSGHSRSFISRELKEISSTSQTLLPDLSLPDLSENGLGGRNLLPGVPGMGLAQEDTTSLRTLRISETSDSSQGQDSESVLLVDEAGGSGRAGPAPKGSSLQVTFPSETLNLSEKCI
Test: EP4 flipr functional assay

{"columns": ["molecule", "EC50"],
 "data": [
  ["CCCCCCc1ccc(-c2cccn2CCCc2ccc(C(=O)O)s2)cc1 [Example 1]", "> 10 µM"]
]}

Where these numbers come from: patent US9637477B2
